- STUDY_TARGET: Beta5 (purified human constitutive proteasome) (Homo sapiens)
- ASSAY_PROCEDURE: Determination of Beta5 activity (fluorescence intensity assay, Suc-LLVY-AMC)
- Format: biochemical
- CONDITION_SUMMARY: long incubation (120 min)
- Experimental: Determination of Beta5 Activity Measurement of Beta5 inhibition is performed in 384 well format based on fluorescence intensity assay. Purified human constitutive proteasome (1.25 nM) and serial diluted compounds in DMSO (range of concentrations from 30 μM to 15 pM) or controls are incubated for 20 minutes or 120 minutes (long incubation) at 25° C. in assay buffer containing 50 mM Tris pH 7.4, 0.03% SDS, 1 mM EDTA and 1% DMSO. […]
pIC50: −log10 of the molar value.
pIC50 reference

Consider the reported pIC50 for these molecules:
CN(CC(=O)N[C@@H](Cc1ccsc1)B(O)O)C(=O)c1ccccc1C(F)(F)F :: < 5.30
CCN(CCC(=O)N[C@@H](C[C@@H]1COc2ccccc21)B(O)O)C(=O)c1ccc(Cl)cc1 :: 6.30 to 7.30
CCN(CC(=O)N[C@@H](Cc1coc2c(C)cccc12)B(O)O)S(=O)(=O)c1ccc(C)cc1 :: < 5.30

Given the molecule `Cc1ccc(S(=O)(=O)N(CC(=O)N[C@@H](C[C@@H]2COc3ccccc32)B(O)O)C(C)C)cc1` , write its reported pIC50.
5.30 to 6.30

* * *

- STUDY_TARGET: LMP7 (purified human immunoproteasome) (Homo sapiens, UniProt P28062)
- ASSAY_PROCEDURE: Determination of LMP7 activity (fluorescence intensity assay, Suc-LLVY-AMC)
- Assay type: biochemical
- CONDITION_SUMMARY: incubation for 20 minutes
METRIC: IC50

Consider the following illustrative entries.
CCc1cccc(C[C@H](NC(=O)CCCC(=O)N(C)C)B(O)O)c1 :: 500 to 5000 nM
CN(C)C(=O)C(C(=O)N[C@@H](Cc1coc2ccccc12)B(O)O)c1ccccc1 (some centres unmarked) :: < 50 nM
CCN(CC(=O)N[C@@H](Cc1ccc(C)cc1C)B(O)O)C(=O)CSC :: 50 to 500 nM
Cc1ccc(S(=O)(=O)N(C)CC(=O)N[C@@H](Cc2ccc(C)cc2C)B(O)O)cc1 :: < 50 nM
CCC(=O)N(CC)CC(=O)N[C@@H](Cc1ccc(C)cc1C)B(O)O :: 50 to 500 nM

Provide IC50 value for the following molecule: `CCN(CCC(=O)N[C@@H](Cc1ccc(F)cc1)B(O)O)C(=O)c1ccc(C(F)(F)F)cc1`
< 50 nM

Kindly indicate its recorded IC50. Item: `CCN(CCC(=O)N[C@@H](Cc1ccc(C)cc1)B(O)O)S(=O)(=O)c1ccccc1`
< 50 nM

Identify measured IC50 associated with `CC(=O)N(CCC(=O)N[C@@H](Cc1ccccc1)B(O)O)c1ccccc1`
50 to 500 nM

* * *

- STUDY_TARGET: Beta5 (purified human constitutive proteasome) (Homo sapiens)
- ASSAY_PROCEDURE: Determination of Beta5 activity (fluorescence intensity assay, Suc-LLVY-AMC)
- Format: biochemical
- CONDITION_SUMMARY: incubation for 20 minutes
- Method: Determination of Beta5 Activity Measurement of Beta5 inhibition is performed in 384 well format based on fluorescence intensity assay. Purified human constitutive proteasome (1.25 nM) and serial diluted compounds in DMSO (range of concentrations from 30 μM to 15 pM) or controls are incubated for 20 minutes or 120 minutes (long incubation) at 25° C. in assay buffer containing 50 mM Tris pH 7.4, 0.03% SDS, 1 mM EDTA and 1% DMSO. […]
Readings of IC50 for the listed compounds

Past entries and their recorded results:
CCN(CC(=O)N[C@@H](Cc1ccc(C)cc1C)B(O)O)S(=O)(=O)c1ccccc1C :: 500 to 5000 nM
CCC(=O)N(CC)CC(=O)N[C@@H](Cc1ccc(C)cc1C)B(O)O :: > 5000 nM
CCN(CCC(=O)N[C@@H](Cc1ccc(F)cc1)B(O)O)C(=O)c1ccc(OC)cc1 :: 500 to 5000 nM

State its IC50: `CCc1cccc(C[C@H](NC(=O)CCS(C)(=O)=O)B(O)O)c1`
500 to 5000 nM

Using the record for `CCc1cccc(C[C@H](NC(=O)CCCS(C)(=O)=O)B(O)O)c1` , state its measured IC50.
> 5000 nM

Look up and report measured IC50 for this entry: `CCN(CC(=O)N[C@@H](Cc1ccc(C)cc1)B(O)O)S(=O)(=O)c1ccccc1`
50 to 500 nM

Look up and report measured IC50 for this entry: `CCN(CCC(=O)N[C@@H](Cc1ccccc1)B(O)O)C(=O)c1ccccc1`
500 to 5000 nM

State, in one line, measured IC50 of `CCN(CCC(=O)N[C@@H](Cc1ccccc1)B(O)O)C(=O)c1ccc(C)cc1`
500 to 5000 nM

Return IC50 (reported value) for this compound: `CCN(CCC(=O)N[C@@H](Cc1ccc(F)cc1)B(O)O)C(=O)c1ccc(C#N)cc1`
500 to 5000 nM

Fill in reported IC50 for this entry: `CCN(CCC(=O)N[C@@H](Cc1ccc(F)cc1)B(O)O)C(=O)c1ccc(Cl)cc1`
50 to 500 nM

The reported measurements were obtained from patent US10253049B2.
